biological target: NLRP3 inflammasome (Homo sapiens); assay: Inhibition of IL-1β, IL-18 and IL-1α production in human PBMCs stimulated by LPS + ATP; assay type: cell-based; parameters: host or cells: human PBMCs; fresh heparinised human whole blood from healthy volunteers; settings: Human PBMC, read-out: Geo Av IC50, IL-1α
value type: pIC50
Note on units: pIC50 is unitless, being -log10 of a concentration expressed in mol/L.

Data request: Under NLRP3 inflammasome (Homo sapiens): pIC50 value of `CO[C@@H]1COc2c(S(=O)(=O)NC(=O)Nc3c4c(cc5c3CCC5)CCC4)cnn2C1` ?
Data returned: 8.52

---

biological target: UniProtKB Q8R4B8; experiment: Inhibition of IL-1β production in mouse BMDMs stimulated by LPS + cholesterol crystals; format: cell-based; set-up: host or cells: mouse PBMCs; mouse bone-marrow derived macrophages; mouse whole blood (C57BL/6 in the ex vivo study); conditions: Mouse BMDM, read-out: Geo Av IC50, IL-1β
value type: IC50 (nM)
Note: unit nM is implicit; provide only the numeric part.

Data request: Looking for the measured IC50 of `CO[C@@H]1COc2c(S(=O)(=O)NC(=O)Nc3c4c(cc5c3CCC5)CCC4)cnn2C1` , can you help?
Data returned: 2

---

molecular target: NLRP3 inflammasome (Homo sapiens, UniProt Q96P20); assay: Inhibition of IL-1β, IL-18 and IL-1α production in human PBMCs stimulated by LPS + ATP; type: cell-based; parameters: host or cells: human PBMCs; fresh heparinised human whole blood from healthy volunteers; conditions: Human PBMC, read-out: Geo Av IC50, IL-1β
Sequence (Q96P20 whole entry): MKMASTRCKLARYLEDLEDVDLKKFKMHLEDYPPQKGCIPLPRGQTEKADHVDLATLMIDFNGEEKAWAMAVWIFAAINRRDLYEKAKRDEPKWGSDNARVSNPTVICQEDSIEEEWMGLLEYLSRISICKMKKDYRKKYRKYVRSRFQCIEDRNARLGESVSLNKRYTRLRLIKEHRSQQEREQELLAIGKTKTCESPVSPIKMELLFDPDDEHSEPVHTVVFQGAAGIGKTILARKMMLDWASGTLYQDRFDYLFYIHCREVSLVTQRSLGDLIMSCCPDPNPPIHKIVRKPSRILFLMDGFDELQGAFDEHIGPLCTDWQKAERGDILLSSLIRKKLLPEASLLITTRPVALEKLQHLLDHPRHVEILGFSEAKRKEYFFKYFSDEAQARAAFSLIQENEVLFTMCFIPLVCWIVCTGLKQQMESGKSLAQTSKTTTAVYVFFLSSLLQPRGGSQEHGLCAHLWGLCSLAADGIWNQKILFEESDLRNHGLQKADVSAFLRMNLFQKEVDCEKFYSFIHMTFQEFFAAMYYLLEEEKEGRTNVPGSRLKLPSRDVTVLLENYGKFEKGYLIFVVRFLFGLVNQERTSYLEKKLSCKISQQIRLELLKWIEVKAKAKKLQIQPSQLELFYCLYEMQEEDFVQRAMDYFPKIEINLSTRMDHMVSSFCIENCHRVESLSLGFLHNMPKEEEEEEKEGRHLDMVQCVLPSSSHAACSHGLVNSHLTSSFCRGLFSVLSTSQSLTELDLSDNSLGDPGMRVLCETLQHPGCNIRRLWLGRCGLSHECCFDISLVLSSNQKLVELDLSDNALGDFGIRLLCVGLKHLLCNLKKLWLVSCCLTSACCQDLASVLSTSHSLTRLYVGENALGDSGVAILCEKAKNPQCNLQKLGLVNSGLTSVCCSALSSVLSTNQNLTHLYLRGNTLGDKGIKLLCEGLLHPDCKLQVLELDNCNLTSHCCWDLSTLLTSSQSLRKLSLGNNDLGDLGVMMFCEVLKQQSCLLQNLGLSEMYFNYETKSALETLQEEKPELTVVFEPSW
value type: pIC50
Note on units: pIC50 is unitless, being -log10 of a concentration expressed in mol/L.

Data request: Looking for the measured pIC50 of `CO[C@@H]1COc2c(S(=O)(=O)NC(=O)Nc3c4c(cc5c3CCC5)CCC4)cnn2C1` , can you help?
Data returned: 8.40

---

target: NLRP3 inflammasome (Mus musculus, UniProt Q8R4B8); assay: Inhibition of IL-1β production in mouse BMDMs stimulated by LPS + ATP; format: cell-based; design: host or cells: mouse PBMCs; mouse bone-marrow derived macrophages; mouse whole blood (C57BL/6 in the ex vivo study); details: Mouse BMDM, read-out: Geo Av IC50, IL-1β
Sequence (Q8R4B8 whole entry): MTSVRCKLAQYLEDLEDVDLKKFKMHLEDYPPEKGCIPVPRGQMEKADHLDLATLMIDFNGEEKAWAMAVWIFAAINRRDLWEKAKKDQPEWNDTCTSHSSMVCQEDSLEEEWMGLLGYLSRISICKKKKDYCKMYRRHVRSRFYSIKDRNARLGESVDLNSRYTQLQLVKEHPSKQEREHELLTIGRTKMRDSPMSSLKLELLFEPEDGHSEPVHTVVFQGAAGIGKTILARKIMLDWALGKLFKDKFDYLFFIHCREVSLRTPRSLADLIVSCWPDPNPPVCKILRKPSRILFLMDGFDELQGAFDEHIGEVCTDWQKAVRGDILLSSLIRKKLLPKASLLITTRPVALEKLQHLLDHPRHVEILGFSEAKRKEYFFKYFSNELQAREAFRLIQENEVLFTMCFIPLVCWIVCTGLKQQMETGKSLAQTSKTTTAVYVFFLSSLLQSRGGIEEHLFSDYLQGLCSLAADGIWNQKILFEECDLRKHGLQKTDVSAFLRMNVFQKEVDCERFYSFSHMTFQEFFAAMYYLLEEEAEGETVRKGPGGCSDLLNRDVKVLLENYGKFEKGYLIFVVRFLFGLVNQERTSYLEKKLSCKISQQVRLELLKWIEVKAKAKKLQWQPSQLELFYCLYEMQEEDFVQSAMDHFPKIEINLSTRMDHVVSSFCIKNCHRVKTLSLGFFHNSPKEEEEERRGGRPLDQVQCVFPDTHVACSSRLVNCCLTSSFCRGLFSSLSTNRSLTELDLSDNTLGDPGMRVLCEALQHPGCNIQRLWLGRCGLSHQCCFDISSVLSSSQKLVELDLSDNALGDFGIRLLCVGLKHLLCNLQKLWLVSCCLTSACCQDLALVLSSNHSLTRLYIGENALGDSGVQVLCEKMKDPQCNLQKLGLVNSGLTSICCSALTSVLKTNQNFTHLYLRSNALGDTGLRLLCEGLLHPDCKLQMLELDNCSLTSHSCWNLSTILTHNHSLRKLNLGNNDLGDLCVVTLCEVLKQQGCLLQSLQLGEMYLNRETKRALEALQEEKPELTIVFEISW
value type: pIC50
Note on units: pIC50 is unitless, being -log10 of a concentration expressed in mol/L.

Data request: Under NLRP3 inflammasome (Mus musculus, UniProt Q8R4B8): pIC50 value of CO[C@@H]1COc2c(S(=O)(=O)NC(=O)Nc3c4c(cc5c3CCC5)CCC4)cnn2C1 [JT002] ?
Data returned: 8.30

---

experiment: Pharmacokinetics in male Beagle dogs after i.v. and p.o. administration; format: in vivo; conditions: plasma, po, Dog, 1 mg/kg
value type: half-life (h)
Note: unit h is implicit; provide only the numeric part.

Data request: Looking for the measured half-life of CO[C@@H]1COc2c(S(=O)(=O)NC(=O)Nc3c4c(cc5c3CCC5)CCC4)cnn2C1 [JT002] , can you help?
Data returned: 1.4

---

assay: Pharmacokinetics in male Sprague–Dawley rats after i.v. and p.o. administration; type: in vivo; conditions: male, Sprague-Dawley, plasma, iv; Rat, 1 mg/kg
value type: half-life (h)
Note: unit h is implicit; provide only the numeric part.

Data request: Looking for the measured half-life of CO[C@@H]1COc2c(S(=O)(=O)NC(=O)Nc3c4c(cc5c3CCC5)CCC4)cnn2C1 [JT002] , can you help?
Data returned: 2.8

---

biological target: NLRP3 inflammasome (Mus musculus); experiment: Inhibition of IL-1β production in mouse PBMCs stimulated by LPS + nigericin; format: cell-based; parameters: host or cells: mouse PBMCs; mouse bone-marrow derived macrophages; mouse whole blood (C57BL/6 in the ex vivo study); details: Mouse PBMC, read-out: Geo Av IC50, IL-1β
value type: IC50 (nM)
Note: unit nM is implicit; provide only the numeric part.

Data request: Looking for the measured IC50 of `CO[C@@H]1COc2c(S(=O)(=O)NC(=O)Nc3c4c(cc5c3CCC5)CCC4)cnn2C1` , can you help?
Data returned: 25

---

target: NLRP3 inflammasome (Mus musculus); assay: Inhibition of IL-1β production in mouse BMDMs stimulated by LPS + nigericin; type: cell-based; parameters: host or cells: mouse PBMCs; mouse bone-marrow derived macrophages; mouse whole blood (C57BL/6 in the ex vivo study); conditions: Mouse BMDM, read-out: Geo Av IC50, IL-1β
value type: IC50 (nM)
Note: unit nM is implicit; provide only the numeric part.

Data request: Looking for the measured IC50 of `CO[C@@H]1COc2c(S(=O)(=O)NC(=O)Nc3c4c(cc5c3CCC5)CCC4)cnn2C1` , can you help?
Data returned: 23

---

target: NLRP3 inflammasome (Homo sapiens, UniProt Q96P20); experiment: Inhibition of IL-1β production in human PBMCs stimulated by LPS + nigericin; format: cell-based; set-up: host or cells: human PBMCs; fresh heparinised human whole blood from healthy volunteers; conditions: Human PBMC, read-out: Geo Av IC50, IL-1β
value type: IC50 (nM)
Note: unit nM is implicit; provide only the numeric part.

Data request: Looking for the measured IC50 of `CO[C@@H]1COc2c(S(=O)(=O)NC(=O)Nc3c4c(cc5c3CCC5)CCC4)cnn2C1` , can you help?
Data returned: 6

---

assay: Pharmacokinetics in male Sprague–Dawley rats after i.v. and p.o. administration; assay type: in vivo; details: male, Sprague-Dawley, plasma, iv; Rat, 1 mg/kg
value type: AUC

Data request: Looking for the measured AUC of `CO[C@@H]1COc2c(S(=O)(=O)NC(=O)Nc3c4c(cc5c3CCC5)CCC4)cnn2C1` , can you help?
Data returned: 16200 ng·h/mL

---

system: intracellular caspase-1 activity; test: Intracellular caspase-1 activity in human PBMCs stimulated with LPS + nigericin (Caspase-Glo); format: cell-based; conditions: Human PBMC, read-out: Geo Av IC50, Caspase-1
value type: pIC50
Note on units: pIC50 is unitless, being -log10 of a concentration expressed in mol/L.

Data request: Under intracellular caspase-1 activity: pIC50 value of `CO[C@@H]1COc2c(S(=O)(=O)NC(=O)Nc3c4c(cc5c3CCC5)CCC4)cnn2C1` ?
Data returned: 8.10

---

test: Pharmacokinetics in male Beagle dogs after i.v. and p.o. administration; format: in vivo; settings: plasma, Dog, single 1 mg oral dose, read-out: maximum drug plasma concentration (Cmax)
value type: Cmax (µM)
Note: unit µM is implicit; provide only the numeric part.

Data request: Looking for the measured Cmax of CO[C@@H]1COc2c(S(=O)(=O)NC(=O)Nc3c4c(cc5c3CCC5)CCC4)cnn2C1 [JT002] , can you help?
Data returned: 9

---

target: NLRP3 inflammasome (Mus musculus, UniProt Q8R4B8); test: Inhibition of non-canonical NLRP3 pathway IL-1β production in mouse BMDMs (Pam3CSK4 + transfected LPS); format: cell-based; design: host or cells: mouse PBMCs; mouse bone-marrow derived macrophages; mouse whole blood (C57BL/6 in the ex vivo study); settings: Mouse BMDM, read-out: Geo Av IC50, IL-1β
value type: IC50
Answers without a unit are incomplete; give the number and then its unit.

Data request: Under NLRP3 inflammasome (Mus musculus, UniProt Q8R4B8): IC50 value of CO[C@@H]1COc2c(S(=O)(=O)NC(=O)Nc3c4c(cc5c3CCC5)CCC4)cnn2C1 [JT002] ?
Data returned: 30 nM

---

assay: Pharmacokinetics in male Beagle dogs after i.v. and p.o. administration; assay type: in vivo; conditions: plasma, iv, Dog, 1 mg/kg
value type: half-life (h)
Note: unit h is implicit; provide only the numeric part.

Data request: Looking for the measured half-life of `CO[C@@H]1COc2c(S(=O)(=O)NC(=O)Nc3c4c(cc5c3CCC5)CCC4)cnn2C1` , can you help?
Data returned: 1.1

---

assay: Pharmacokinetics in male Sprague–Dawley rats after i.v. and p.o. administration; format: in vivo; settings: male, Sprague-Dawley, plasma, po; Rat, 5 mg/kg, median
value type: Tmax
Answers without a unit are incomplete; give the number and then its unit.

Data request: Looking for the measured Tmax of `CO[C@@H]1COc2c(S(=O)(=O)NC(=O)Nc3c4c(cc5c3CCC5)CCC4)cnn2C1` , can you help?
Data returned: 30 min

---

Test: Pharmacokinetics in male Beagle dogs after i.v. and p.o. administration
Type: in vivo
Conditions: plasma, iv, Dog, i.v., 1 mg/kg, read-out: Vss
Method: The pharmacokinetics (PK) of JT002 were assessed in male Sprague–Dawley rats and male Beagle dogs after intravenous (i.v.) and oral (p.o.) administration (Table 2). […] In dogs, a maximum drug plasma concentration (Cmax) of 4.0 µg/mL (9 µM) was reached 1 h after a single 1 mg oral dose. Dose-adjusted exposures (dose-adjusted AUC) from oral administration were close to identical between rat and dog (11.8 versus 11.6) (Table 2).
value type: Vd
Answers without a unit are incomplete; give the number and then its unit.

Data request: Looking for the measured Vd of CO[C@@H]1COc2c(S(=O)(=O)NC(=O)Nc3c4c(cc5c3CCC5)CCC4)cnn2C1 [JT002] , can you help?
Data returned: 0.2 L/kg
